target: T1, monovalent hVISTA-ECD with polyhistidine tail (SEQ ID NO: 325) (human, UniProt Q9H7M9 33-193); assay: SPR, mAb captured on Protein A chip, hVISTA injected, PBST pH 6.0, 37 C
T1 construct: also called hVISTA-ECD 6-His tag; human VISTA
T1 sequence (Q9H7M9 other isoform, or with tags, fused parts or gaps limits assumed): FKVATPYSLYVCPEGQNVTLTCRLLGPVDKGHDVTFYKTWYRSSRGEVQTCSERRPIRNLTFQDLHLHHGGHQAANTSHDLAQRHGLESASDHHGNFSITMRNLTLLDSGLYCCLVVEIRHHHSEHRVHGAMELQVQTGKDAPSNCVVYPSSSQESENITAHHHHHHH
Reported koff values for the following binders.
Give just the number in s⁻¹; leave the unit off.

{"columns": ["Binder", "Measurement Type", "Value Units", "Assay Value"],
 "data": [
  ["P1-077869 (P1-068748 D57K) (antibody, V domains shown, Reversion mutant of P1-068748 (Kabat names); captured on a Protein A chip) VH: QVQLVESGGGVVQPGRSLRLSCAASGFTFSHHAMHWVRQAPGKGLEWVAIIWYDGSNKDYADSVKGRFTISRDNSKNTLYLQMNSLRAEDTAVYYCARDSGFYDSYYFDYWGQGTLVTVSS VL: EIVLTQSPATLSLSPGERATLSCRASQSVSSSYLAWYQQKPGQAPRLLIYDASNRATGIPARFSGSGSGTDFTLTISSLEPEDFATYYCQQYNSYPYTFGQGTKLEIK", "koff", "s⁻¹", 0.0026]
]}

Let us examine a further case.
query: Dear colleague, I am looking for the recorded koff of the following binder: P1-077889 (P1-068748 H32Y D58Y) (antibody, V domains shown, Reversion mutant of P1-068748 (Kabat names); captured on a Protein A chip) VH: QVQLVESGGGVVQPGRSLRLSCAASGFTFSHYAMHWVRQAPGKGLEWVAIIWYDGSNDYYADSVKGRFTISRDNSKNTLYLQMNSLRAEDTAVYYCARDSGFYDSYYFDYWGQGTLVTVSS VL: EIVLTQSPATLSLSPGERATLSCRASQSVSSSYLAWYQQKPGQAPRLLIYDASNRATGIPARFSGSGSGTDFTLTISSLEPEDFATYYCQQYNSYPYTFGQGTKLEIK
result: 0.022
